Measured Ki, listed per entry.
Target: RpedOBP38 (Riptortus pedestris)
Sequence (A0A2Z4HQ26 entry or part of it): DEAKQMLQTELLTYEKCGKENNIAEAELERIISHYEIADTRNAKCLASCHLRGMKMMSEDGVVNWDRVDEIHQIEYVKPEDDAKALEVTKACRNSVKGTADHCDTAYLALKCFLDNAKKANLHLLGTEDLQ
Experiment: Fluorescence competitive binding assay (1-NPN displacement)
The answer is to be given in µM; state only the numeric part.

| molecule | Ki [µM] |
| --- | --- |
| C=C(C)C1CC=C(C)C(=O)C1 (single isomer, unassigned; (-)) [(−)-carvone] | 27.2 |

# ---- query molecule ----
**Query** Report Ki, nothing else, for this molecule: CC1=CC[C@](O)(C(C)C)CC1 [(+) -4-terpineol]
**Result** 14

* * *

Molecular target: RpedOBP38 (Riptortus pedestris)
Test: Fluorescence competitive binding assay (1-NPN displacement)
Conditions: 2 μM recombinant RpedOBP38 and 1-NPN, PBS pH 7.4; three replicates
pIC50: −log10 of the molar value.
readoutType: pIC50

| molecule | testedSystem | pIC50 |
| --- | --- | --- |
| C=C(C)C1CC=C(C)C(=O)C1 (single isomer, unassigned; (-)) [(−)-carvone] | RpedOBP38 (Riptortus pedestris) | 4.44 |
| CCCCCCCCCCCCCCOC(=O)C(C)C [myristyl isobutyrate] | RpedOBP38 (Riptortus pedestris) | < 4.40 |
| CC1=CC[C@@](O)(C(C)C)CC1 [(−) -4-terpineol] | RpedOBP38 (Riptortus pedestris) | < 4.40 |
| CC1=CC[C@](O)(C(C)C)CC1 [(+) -4-terpineol] | RpedOBP38 (Riptortus pedestris) | 4.73 |
| C=C(C)[C@H]1CC=C(C)C(=O)C1 [(+)-carvone] | RpedOBP38 (Riptortus pedestris) | < 4.40 |

Continue with the next molecule.
**Query** In one line, give reported pIC50 of the entry CC1=CCC2CC1C2(C)C (stereo not drawn) [(−)-α-pinene] .
**Result** < 4.40
